Reference for the values: ChEMBL document CHEMBL1137030

PROTOCOL_DESCRIPTION: Proliferation of human (12g12 cloned) V gamma-2 V delta-2 T cell
Format: functional, cell-based
RUN_CONDITIONS: t-cell
OUTCOME_MEASURE: EC50

C[C@@]1(CCOP(=O)(O)OP(=O)(O)O)CO1	1 nM
C[C@@](O)(CBr)CCOP(=O)(O)OP(=O)(O)O	0.8 nM
CC1(CCOP(=O)(O)OP(=O)(O)O)CO1 (single isomer, unassigned)	0.6 nM
